This collection of values is drawn from patent US9062033B2.

Target: human OX2 receptors (Homo sapiens, UniProt O43614)
Construct: expressed in transfected cells; host or cells: HEK-293 cells
Sequence (O43614 1-444): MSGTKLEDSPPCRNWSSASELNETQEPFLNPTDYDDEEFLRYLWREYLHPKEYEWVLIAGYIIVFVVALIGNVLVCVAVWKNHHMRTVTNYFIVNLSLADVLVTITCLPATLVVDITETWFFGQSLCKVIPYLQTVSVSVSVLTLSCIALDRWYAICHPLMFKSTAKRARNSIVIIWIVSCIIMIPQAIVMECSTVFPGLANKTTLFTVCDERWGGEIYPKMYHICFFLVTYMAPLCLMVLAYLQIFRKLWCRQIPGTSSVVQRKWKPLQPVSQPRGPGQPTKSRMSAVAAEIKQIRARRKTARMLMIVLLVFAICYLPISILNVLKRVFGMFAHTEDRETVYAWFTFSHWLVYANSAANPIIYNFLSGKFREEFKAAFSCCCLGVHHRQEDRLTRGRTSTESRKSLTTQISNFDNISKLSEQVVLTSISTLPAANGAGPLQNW
Assay: Antagonistic activity against human OX2 receptor, [Ca2+]i fluorimetry (Fluo-4NW) in transfected HEK-293 cells activated with orexin-B
Type: cell-based
Conditions: HEK-293 cells transfected with human recombinant OX2; orexin-B 10 nM; pKb = co-logarithm of apparent dissociation constant, modified Cheng Prusoff
attribute_measured: log10 Kb (log10 of the value in nM)

> print(dat)
                                   molecule  attribute.measured  observed.value
1  O=C(c1cc(F)ccc1-c1ncccn1)N1CC2(CC2)C[C@H]1CNc1cc(C(F)(F)F)ccn1 [Compound 1k]            log10 Kb            0.90
2  CS(=O)(=O)c1ccc(-c2ccccc2)c(C(=O)N2CC3(CC3)C[C@H]2CNc2ccc(C(F)(F)F)cn2)c1 [Compound 1d]            log10 Kb            1.90
3  Cc1ccc(-c2ncccn2)c(C(=O)N2CC3(CC3)C[C@H]2CNc2nc3ccccc3o2)n1 [Compound E9]            log10 Kb            1.40
4  Cc1ccc(-c2ncccn2)c(C(=O)N2CC3(CC3)C[C@H]2CNc2nccc3ncccc23)n1 [Compound 3p]            log10 Kb            1.40
5  Cc1cccc(C(=O)N2CC3(CC3)C[C@H]2CNc2ccc(C(F)(F)F)cn2)c1-c1ncccn1 [Compound 1c]            log10 Kb            2.30
6  O=C(c1cc(Cl)ccc1-c1ncccn1)N1CC2(CC2)C[C@H]1CNc1nccc(C(F)(F)F)n1 [Compound 1q]            log10 Kb            0.80
7  Cc1ccc(-c2cccnc2)c(C(=O)N2CC3(CC3)C[C@H]2CNc2ccc(C(F)(F)F)cn2)n1 [Compound E6]            log10 Kb            2.30

----------
target: human OX2 receptors (Homo sapiens); construct: expressed in transfected cells; host or cells: HEK-293 cells; test: Antagonistic activity against human OX2 receptor, [Ca2+]i fluorimetry (Fluo-4NW) in transfected HEK-293 cells activated with orexin-B; format: cell-based; settings: HEK-293 cells transfected with human recombinant OX2; orexin-B 10 nM; pKb = co-logarithm of apparent dissociation constant, modified Cheng Prusoff
attribute_measured: Kb (nM)

> print(dat)
                               entry.smiles  attribute.measured  observed.value
1  O=C(c1cc(Cl)ccc1-c1ncccn1)N1CC2(CC2)C[C@H]1CNc1ccc(C(F)(F)F)cn1                  Kb            63.1
2  Cc1ccc(-c2ccc(C#N)cc2)c(C(=O)N2CC3(CC3)C[C@H]2CNc2ccc(C(F)(F)F)cn2)n1                  Kb            31.6
3  Cc1nc(C(=O)N2CC3(CC3)C[C@H]2CNc2nccc3ccccc23)c(-c2ccccc2)s1                  Kb            2.51
4  O=C(c1c(F)cccc1-c1ncccn1)N1CC2(CC2)C[C@H]1CNc1cc(C(F)(F)F)ccn1                  Kb            12.6
5  Cc1ccc(OCc2cccc(F)c2F)c(C(=O)N2CC3(CC3)C[C@H]2CNc2ccc(C(F)(F)F)cn2)n1                  Kb            7.94
6  Cc1ccc(-c2ncccn2)c(C(=O)N2CC3(CC3)C[C@H]2CNc2cc(C(F)(F)F)c(Cl)cn2)c1                  Kb              10
7  Cc1cnn(-c2ccc(C)nc2C(=O)N2CC3(CC3)C[C@H]2CNc2ccc(C(F)(F)F)cn2)c1                  Kb            5.01
